Values from PubChem BioAssay AID1159580

Experimental details: chemical genetic growth profiling, strain panel (AID 1159580);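 further: tested at 20 µM; growth read once vehicle control cultures reached saturation at 30 °C; 1 = growth at the plate median or of vehicle wells; lower values mean less growth of the strain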
Assay conditions: S. cerevisiae deletion strains, growth OD, locus YLR258W, strain gsy2, active compounds read low
In all, about 5,500 compounds went through this assay and about 2,000 (36%) were called active. Not shown: some 18% with an inconclusive outcome. The list shows a part of the results.
# normalized growth per record follows

{"Compound": "CN(C)CCCN1c2ccccc2Sc2ccc(Cl)cc21", "normalized growth": 0.0787}
{"Compound": "N[C@@H](CCC(=O)N[C@@H](CS)C(=O)NCC(=O)O)C(=O)O", "normalized growth": 1.01}
{"Compound": "NC(=O)NC(=O)Cc1ccccc1", "normalized growth": 0.977}
{"Compound": "O=C(CC(=O)c1ccccc1)c1ccccc1", "normalized growth": 0.234}
{"Compound": "CC(CCc1ccccc1)NCC(O)c1ccc(O)c(C(N)=O)c1 (configuration not stated)", "normalized growth": 1.01}
{"Compound": "O=C(OCc1ccccc1)c1ccccc1", "normalized growth": 0.956}
{"Compound": "CN(C)CCCN1c2ccccc2Sc2ccc(C(F)(F)F)cc21", "normalized growth": 0.989}
{"Compound": "CC(C)(C)NCC(O)c1ccc(O)c(CO)c1 (configuration not stated)", "normalized growth": 1.02}
{"Compound": "CN(C)CCCN1c2ccccc2Sc2ccccc21", "normalized growth": 0.983}
{"Compound": "COc1ccc([C@@H]2CC(=O)c3c(O)cc(O[C@@H]4O[C@H](CO[C@H]5O[C@@H](C)[C@H](O)[C@@H](O)[C@H]5O)[C@@H](O)[C@H](O)[C@H]4O)cc3O2)cc1O", "normalized growth": 0.988}
{"Compound": "CN(C)CCCN1c2ccccc2CCc2ccc(Cl)cc21", "normalized growth": 0.961}
{"Compound": "NS(=O)(=O)c1cc2c(cc1Cl)NC(CSCc1ccccc1)=NS2(=O)=O", "normalized growth": 0.994}

###

Experimental details: chemical genetic growth profiling, strain panel (AID 1159580);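 further: tested at 20 µM; growth read once vehicle control cultures reached saturation at 30 °C; 1 = growth at the plate median or of vehicle wells; lower values mean less growth of the strain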
Assay conditions: S. cerevisiae deletion strains, growth OD, locus YOR290C, strain snf2, active compounds read low
About 2,000 (36%) of roughly 5,500 compounds were called active. Not shown: some 18% with an inconclusive outcome. The list shows a part of the results.
Measurement kind: normalized growth

{"Molecule": "CC1=CC(=O)c2ccccc2C1=O", "Measured result": 1.02}
{"Molecule": "NC(=O)c1cccnc1", "Measured result": 0.996}
{"Molecule": "CNNC", "Measured result": 1.03}
{"Molecule": "Cc1cc(=O)[nH]c(=S)[nH]1", "Measured result": 0.94}
{"Molecule": "CC(=O)N[C@@H](Cc1c[nH]c2ccccc12)C(N)=O", "Measured result": 1.01}
{"Molecule": "CN[C@@H]1[C@H](O)[C@H](NC)[C@H]2O[C@@]3(O)C(=O)C[C@@H](C)O[C@H]3O[C@@H]2[C@H]1O", "Measured result": 0.978}
{"Molecule": "Cc1nc(N)cc(C[n+]2csc(CCO)c2C)n1", "Measured result": 0.975}
{"Molecule": "O=C(OCc1ccccc1)c1ccccc1", "Measured result": 0.941}
{"Molecule": "O=C(CC(=O)c1ccccc1)c1ccccc1", "Measured result": 0.391}
{"Molecule": "CC[N+](C)(C)c1cccc(O)c1", "Measured result": 1.04}
{"Molecule": "CC(N=C(NC#N)Nc1ccncc1)C(C)(C)C (stereo unspecified)", "Measured result": 1.01}
{"Molecule": "COC1CC2CCC(C)C(O)(O2)C(=O)C(=O)N2CCCCC2C(=O)OC(C(C)CC2CCC(O)C(OC)C2)CC(=O)C(C)/C=C(\\C)C(O)C(OC)C(=O)C(C)CC(C)/C=C/C=C/C=C/1C (stereo unspecified)", "Measured result": 0.0616}
{"Molecule": "CC1=CC(=O)c2c(O)cccc2C1=O", "Measured result": 0.906}
{"Molecule": "CC(=O)Oc1cccc(O)c1", "Measured result": 1.01}
{"Molecule": "O=P1(NCCCl)OCCCN1CCCl (stereo unspecified)", "Measured result": 0.994}
{"Molecule": "O=C1NC(O)=NC1(c1ccccc1)c1ccccc1", "Measured result": 1.03}
{"Molecule": "COc1cc(C/C=C/c2ccccc2)c(OC)cc1O", "Measured result": 0.902}
{"Molecule": "CC(C)(C)NCC(O)c1ccc(O)c(CO)c1 (stereo unspecified)", "Measured result": 1.03}
{"Molecule": "NC1=NCCN1CC(=O)O", "Measured result": 1.01}
{"Molecule": "CC(CCc1ccccc1)NCC(O)c1ccc(O)c(C(N)=O)c1 (stereo unspecified)", "Measured result": 1.03}
{"Molecule": "C/C=C\\C1=C(C(=O)O)N2C(=O)C(NC(=O)C(N)c3ccc(O)cc3)C2SC1 (stereo unspecified)", "Measured result": 1}
{"Molecule": "CC(=O)Oc1ccc(/C=C/c2cc(OC(C)=O)cc(OC(C)=O)c2)cc1", "Measured result": 0.944}
{"Molecule": "OC[C@H]1O[C@@](CO)(O[C@@H]2O[C@H](CO)[C@@H](O)[C@H](O)[C@H]2O)[C@@H](O[C@@H]2O[C@H](CO)[C@@H](O)[C@H](O)[C@H]2O)[C@@H]1O", "Measured result": 0.981}
{"Molecule": "O=C(OOC(=O)c1ccccc1)c1ccccc1", "Measured result": 0.917}
{"Molecule": "CCCN(CCC)S(=O)(=O)c1ccc(C(=O)O)cc1", "Measured result": 1.01}
{"Molecule": "NCC(=O)c1ccccc1", "Measured result": 0.998}

###

Experimental details: chemical genetic growth profiling, strain panel (AID 1159580);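 further: tested at 20 µM; growth read once vehicle control cultures reached saturation at 30 °C; 1 = growth at the plate median or of vehicle wells; lower values mean less growth of the strain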
Assay conditions: S. cerevisiae deletion strains, growth OD, locus YCL029C, strain bik1, active compounds read low
About 2,000 (36%) of roughly 5,500 compounds were called active. Roughly 18% stayed inconclusive and do not appear here. The list shows a part of the results.
Measurement kind: normalized growth

{"Compound": "CC(C)=CCCC(C)C1CC[C@@]2(C)C3=C(CC[C@]12C)C1(C)CC[C@H](O)C(C)(C)C1CC3 (stereo not given in full)", "Measured result": 0.972}
{"Compound": "CC(CCc1ccccc1)NCC(O)c1ccc(O)c(C(N)=O)c1 (stereo not given)", "Measured result": 1.01}
{"Compound": "C=C(C)C1(O)OC(=O)C=C1OC (stereo not given)", "Measured result": 0.977}
{"Compound": "CC(=O)O[C@@H]1CC[C@@]2(C)C(C[C@@H](OC(C)=O)[C@@]3(C)C4=CC(=O)O[C@@H](c5ccoc5)[C@]4(C)CCC23)C1(C)C (stereo not given in full)", "Measured result": 0.99}
{"Compound": "Oc1cccc(O)c1", "Measured result": 0.987}
{"Compound": "C[C@H](CCC(=O)O)[C@H]1CCC2C3C(=O)CC4CC(=O)CC[C@]4(C)C3CC(=O)[C@@]21C (stereo not given in full)", "Measured result": 1.01}
{"Compound": "CN(C)[C@@H]1C(=O)C(C(N)=O)=C(O)[C@@]2(O)C(=O)C3=C(O)c4c(O)cccc4[C@@](C)(O)[C@H]3[C@H](O)[C@@H]12", "Measured result": 0.998}
{"Compound": "CN(C)CCCN1c2ccccc2Sc2ccccc21", "Measured result": 1.02}
{"Compound": "CC(=O)O[C@@H]1CC2C(C)(C)C(=O)C=C[C@]2(C)C2CC[C@]3(C)C(=CC(=O)O[C@H]3c3ccoc3)[C@@]21C (stereo not given in full)", "Measured result": 0.977}
{"Compound": "C=C(C)C1CCC(C)(O)C2CC3OC3(C)C2C1 (stereo not given)", "Measured result": 1.02}
{"Compound": "CC1=CC(=O)c2ccccc2C1=O", "Measured result": 0.0624}
{"Compound": "CN(C)CCCN1c2ccccc2CCc2ccccc21", "Measured result": 1}
{"Compound": "C[n+]1ccccc1/C=N/O", "Measured result": 1.01}
{"Compound": "CC(=O)Oc1ccc(C(c2ccc(OC(C)=O)cc2)c2ccccn2)cc1", "Measured result": 0.988}
{"Compound": "OC[C@H]1O[C@@H](O[C@H]2[C@H](O)[C@@H](O)[C@@H](O)O[C@@H]2CO)[C@H](O)[C@@H](O)[C@@H]1O", "Measured result": 1.01}
{"Compound": "CCCc1cc(=O)[nH]c(=S)[nH]1", "Measured result": 0.994}
{"Compound": "COc1ccc([C@@H]2CC(=O)c3c(O)cc(O[C@@H]4O[C@H](CO[C@H]5O[C@@H](C)[C@H](O)[C@@H](O)[C@H]5O)[C@@H](O)[C@H](O)[C@H]4O)cc3O2)cc1O", "Measured result": 0.971}
{"Compound": "COc1ccccc1OCC(O)CO (stereo not given)", "Measured result": 0.972}
{"Compound": "CC(=O)c1cc(CC=C(C)C)c(O)c(CC=C(C)C)c1", "Measured result": 0.96}
{"Compound": "CCCSc1ccc2nc(NC(=O)OC)[nH]c2c1", "Measured result": 0.82}
{"Compound": "Cc1cc(=O)[nH]c(=S)[nH]1", "Measured result": 1.02}
{"Compound": "C=C1C[C@]23C[C@@]1(O)CC[C@H]2[C@@]12C=C[C@H](O)[C@@](C)(C(=O)O1)[C@H]2[C@@H]3C(=O)O", "Measured result": 0.984}
{"Compound": "CC(C)c1ccc2c(c1)CCC1[C@](C)(CN)CCC[C@]21C (stereo not given in full)", "Measured result": 0.652}
{"Compound": "C=C1c2c(Cl)ccc(O)c2C(O)=C2C(=O)[C@]3(O)C(O)=C(C(N)=O)C(=O)[C@@H](N(C)C)[C@@H]3[C@@H](O)[C@H]12", "Measured result": 0.948}
{"Compound": "CC(=O)O[C@@H]1CC2C(C)(C)[C@H](O)C=C[C@]2(C)C2CC[C@]3(C)C(=CC(=O)O[C@H]3c3ccoc3)[C@@]21C (stereo not given in full)", "Measured result": 1.01}
{"Compound": "NS(=O)(=O)c1cc2c(cc1Cl)NC(CSCc1ccccc1)=NS2(=O)=O", "Measured result": 0.988}
{"Compound": "OC[C@H]1O[C@@](CO)(O[C@@H]2O[C@H](CO)[C@@H](O)[C@H](O)[C@H]2O)[C@@H](O[C@@H]2O[C@H](CO)[C@@H](O)[C@H](O)[C@H]2O)[C@@H]1O", "Measured result": 1.05}
{"Compound": "CC(C)(C)NCC(O)c1ccc(O)c(CO)c1 (stereo not given)", "Measured result": 1.01}
{"Compound": "CN(C)CCCN1c2ccccc2CCc2ccc(Cl)cc21", "Measured result": 1}
{"Compound": "CC(=O)Oc1ccc(O)cc1", "Measured result": 1.03}
{"Compound": "CC(C)=CCc1c2c(c3occ(-c4ccc(O)cc4)c(=O)c3c1O)C=CC(C)(C)O2", "Measured result": 0.926}
{"Compound": "CC(CCC(=O)O)[C@H]1CCC2C3CC[C@@H]4CC(=O)CC[C@]4(C)C3C=C[C@@]21C (stereo not given in full)", "Measured result": 0.984}
{"Compound": "COc1c(C)c2c(c(C)c1Cl)Oc1c(Cl)c(OC)c(Cl)c(C)c1C(=O)O2", "Measured result": 1.02}
{"Compound": "NCCCCCCNS(=O)(=O)c1cccc2c(Cl)cccc12", "Measured result": 0.983}
{"Compound": "CC(=O)OC1CCC2(C)C(CC(OC(C)=O)C3(C)C4=CC(=O)OC(c5ccoc5)C4(C)CCC23)C1(C)C (stereo not given)", "Measured result": 0.995}
{"Compound": "O=C(O)C1=CCCNC1", "Measured result": 0.974}
{"Compound": "N=C(N)N", "Measured result": 0.963}
{"Compound": "CCC(C)C(=O)OC1[C@@H]2CC3=C4CC(=O)O[C@@H](c5ccoc5)[C@]4(C)CCC3[C@@](C)(C2=O)[C@@H](CC(=O)OC)C1(C)C (stereo not given in full)", "Measured result": 1}
{"Compound": "CC(=O)Oc1c(Cl)c(C)c2c(c1Cl)OC(=O)c1c(C)c(Cl)c(OC(C)=O)c(Cl)c1O2", "Measured result": 0.853}
{"Compound": "Cc1ccc2c(c1)C1(C)CCCC(C)(C(=O)O)C1CC2 (stereo not given)", "Measured result": 0.998}
